assay: Stability in human subcutaneous skin homogenate; details: human
Values of Mono AUC (treprostinil formed) strictly less than 10 µmol·min/L map to satisfied, and values of at least 10 µmol·min/L map to not satisfied.

[
  {
    "MOLECULE": "CCCCCC(CCC1C(O)CC2Cc3c(cccc3OCC(=O)O)CC21)OC(=O)OC (stereo not drawn) [Prodrug IV]",
    "DISCRETE_LABEL": "satisfied"
  },
  {
    "MOLECULE": "CCCCCC(CCC1C(O)CC2Cc3c(cccc3OCC(=O)O)CC21)OC(C)=O (stereo not drawn) [Prodrug XLIII]",
    "DISCRETE_LABEL": "not satisfied"
  },
  {
    "MOLECULE": "CCCCCC(CCC1C(O)CC2Cc3c(cccc3OCC(=O)O)CC21)OP(=O)(O)O (stereo not drawn) [Prodrug VI]",
    "DISCRETE_LABEL": "not satisfied"
  },
  {
    "MOLECULE": "CCCCCC(CCC1C(OC(=O)OC)CC2Cc3c(cccc3OCC(=O)O)CC21)OC(=O)OC (stereo not drawn) [Prodrug LXXI, treprostinil dicarbonate]",
    "DISCRETE_LABEL": "satisfied"
  },
  {
    "MOLECULE": "CCCCCC(CCC1C(OC(=O)CC)CC2Cc3c(cccc3OCC(=O)O)CC21)OC(=O)CC (stereo not drawn) [Prodrug LXX, treprostinil dipropionate]",
    "DISCRETE_LABEL": "satisfied"
  },
  {
    "MOLECULE": "CCCCCC(CCC1C(O)CC2Cc3c(cccc3OCC(=O)O)CC21)OC(=O)CC (stereo not drawn) [Prodrug LV]",
    "DISCRETE_LABEL": "not satisfied"
  }
]

====

test: Stability in liver microsomes, dog

[
  {
    "COMPOUND": "CCCCCC(CCC1C(O)CC2Cc3c(cccc3OCC(=O)O)CC21)OC(=O)OCC(=O)O (stereo not shown)",
    "UNIT_TAG": "µM",
    "Trep Concentration 10 min": 0
  },
  {
    "COMPOUND": "CCCCCC(CCC1C(O)CC2Cc3c(cccc3OCC(=O)O)CC21)OC(=O)C(C)(C)C (stereo not shown)",
    "UNIT_TAG": "µM",
    "Trep Concentration 10 min": 0.325
  },
  {
    "COMPOUND": "CCCCCC(CCC1C(O)CC2Cc3c(cccc3OCC(=O)O)CC21)OC(=O)C12CC3CC(CC(C3)C1)C2 (stereo not shown)",
    "UNIT_TAG": "µM",
    "Trep Concentration 10 min": 0.57
  },
  {
    "COMPOUND": "CCCCCC(CCC1C(O)CC2Cc3c(cccc3OCC(=O)O)CC21)OCC (stereo not shown)",
    "UNIT_TAG": "µM",
    "Trep Concentration 10 min": 0.0118
  },
  {
    "COMPOUND": "CCCCCC(CCC1C(O)CC2Cc3c(cccc3OCC(=O)O)CC21)OC(=O)CCC(=O)N1CCOCC1 (stereo not shown)",
    "UNIT_TAG": "µM",
    "Trep Concentration 10 min": 0.0494
  },
  {
    "COMPOUND": "CCCCCC(CCC1C(O)CC2Cc3c(cccc3OCC(=O)O)CC21)OC(=O)COc1ccccc1 (stereo not shown)",
    "UNIT_TAG": "µM",
    "Trep Concentration 10 min": 0.912
  },
  {
    "COMPOUND": "CCCCCC(O)CCC1C(OC(=O)CCC(=O)O)CC2Cc3c(cccc3OCC(=O)O)CC21 (stereo not shown)",
    "UNIT_TAG": "µM",
    "Trep Concentration 10 min": 0
  },
  {
    "COMPOUND": "CCCCCC(CCC1C(O)CC2Cc3c(cccc3OCC(=O)O)CC21)Oc1ccccc1C(=O)O (stereo not shown)",
    "UNIT_TAG": "µM",
    "Trep Concentration 10 min": 0
  },
  {
    "COMPOUND": "CCCCCC(CCC1C(O)CC2Cc3c(cccc3OCC(=O)O)CC21)OC(=O)CO (stereo not shown)",
    "UNIT_TAG": "µM",
    "Trep Concentration 10 min": 0.884
  },
  {
    "COMPOUND": "CCCCCC(CCC1C(O)CC2Cc3c(cccc3OCC(=O)O)CC21)OC(=O)OCC (stereo not shown)",
    "UNIT_TAG": "µM",
    "Trep Concentration 10 min": 0.95
  },
  {
    "COMPOUND": "CCCCCC(O)CCC1C(OC)CC2Cc3c(cccc3OCC(=O)O)CC21 (stereo not shown)",
    "UNIT_TAG": "µM",
    "Trep Concentration 10 min": 0.0224
  },
  {
    "COMPOUND": "CCCCCC(CCC1C(O)CC2Cc3c(cccc3OCC(=O)O)CC21)OC(=O)N1CCCCC1 (stereo not shown)",
    "UNIT_TAG": "µM",
    "Trep Concentration 10 min": 0
  },
  {
    "COMPOUND": "CCCCC[C@@H](CC[C@@H]1[C@H]2Cc3cccc(OCC(=O)O)c3C[C@H]2C[C@H]1O)OC(=O)[C@@H](N)C(C)C",
    "UNIT_TAG": "µM",
    "Trep Concentration 10 min": 0.012
  },
  {
    "COMPOUND": "CCCCCC(CCC1C(O)CC2Cc3c(cccc3OCC(=O)O)CC21)OC(=O)c1ccc(OC(F)(F)F)cc1 (stereo not shown)",
    "UNIT_TAG": "µM",
    "Trep Concentration 10 min": 0.16
  },
  {
    "COMPOUND": "CCCCCC(CCC1C(O)CC2Cc3c(cccc3OCC(=O)O)CC21)OC(=O)CCC(=O)O (stereo not shown)",
    "UNIT_TAG": "µM",
    "Trep Concentration 10 min": 0.044
  },
  {
    "COMPOUND": "CCCCCC(CCC1C(O)CC2Cc3c(cccc3OCC(=O)O)CC21)OCC(=O)O (stereo not shown)",
    "UNIT_TAG": "µM",
    "Trep Concentration 10 min": 0
  },
  {
    "COMPOUND": "CCCCCC(CCC1C(O)CC2Cc3c(cccc3OCC(=O)O)CC21)OC(=O)C(N)CCCCN (stereo not shown)",
    "UNIT_TAG": "µM",
    "Trep Concentration 10 min": 0.0246
  },
  {
    "COMPOUND": "CCCCCC(CCC1C(O)CC2Cc3c(cccc3OCC(=O)O)CC21)OC(=O)C(C)N (stereo not shown)",
    "UNIT_TAG": "µM",
    "Trep Concentration 10 min": 0.479
  },
  {
    "COMPOUND": "CCCCCC(CCC1C(O)CC2Cc3c(cccc3OCC(=O)O)CC21)OCOC(=O)C(C)(C)C (stereo not shown)",
    "UNIT_TAG": "µM",
    "Trep Concentration 10 min": 0.885
  },
  {
    "COMPOUND": "CCCCCC1CCC2C(CC3Cc4c(cccc4OCC(=O)O)CC32)OP(=O)(Oc2ccccc2)O1 (mixture of isomers)",
    "UNIT_TAG": "µM",
    "Trep Concentration 10 min": 0
  },
  {
    "COMPOUND": "CCCCCC(CCC1C(O)CC2Cc3c(cccc3OCC(=O)O)CC21)OC(=O)c1ccc(O)cc1 (stereo not shown)",
    "UNIT_TAG": "µM",
    "Trep Concentration 10 min": 0.0246
  },
  {
    "COMPOUND": "CCCCCC(CCC1C(OC(=O)CC)CC2Cc3c(cccc3OCC(=O)O)CC21)OC(=O)CC (stereo not shown) [Prodrug LXX, treprostinil dipropionate]",
    "UNIT_TAG": "µM",
    "Trep Concentration 10 min": 1.26
  }
]

====

biological target: prostaglandin E2 (PGE2) receptor 2 (EP2) (Homo sapiens); experiment: EP2 receptor cAMP agonist assay (HEK293T cells); assay type: cell-based; conditions: Table 22; relative to treprostinil EC50 values; * partial agonists or ambiguous dose-response curves
Sequence (P43116 whole entry): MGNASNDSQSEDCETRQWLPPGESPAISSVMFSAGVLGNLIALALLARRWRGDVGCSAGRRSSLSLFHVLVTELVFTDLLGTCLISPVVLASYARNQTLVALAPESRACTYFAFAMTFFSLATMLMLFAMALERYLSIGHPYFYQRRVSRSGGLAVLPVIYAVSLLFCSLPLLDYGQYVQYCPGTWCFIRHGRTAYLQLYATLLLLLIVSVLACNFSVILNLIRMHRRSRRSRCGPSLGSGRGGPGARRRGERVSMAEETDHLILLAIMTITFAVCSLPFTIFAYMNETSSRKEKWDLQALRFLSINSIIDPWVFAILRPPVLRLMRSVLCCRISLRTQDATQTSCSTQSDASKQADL

[
  {
    "COMPOUND": "CCCCCC(CCC1C(O)CC2Cc3c(cccc3OCC(=O)O)CC21)OC(=O)CC (stereo not drawn) [Prodrug LV]",
    "EP2 Relative to Tre, x": 50
  },
  {
    "COMPOUND": "CCCCCC(CCC1C(O)CC2Cc3c(cccc3OCC(=O)O)CC21)OCOC(=O)C(C)(C)C (stereo not drawn) [Prodrug LII]",
    "EP2 Relative to Tre, x": 26
  },
  {
    "COMPOUND": "CCCCCC(CCC1C(O)CC2Cc3c(cccc3OCC(=O)O)CC21)OP(=O)(O)O (stereo not drawn) [Prodrug VI]",
    "EP2 Relative to Tre, x": 4
  },
  {
    "COMPOUND": "CCCCCC(CCC1C(O)CC2Cc3c(cccc3OCC(=O)O)CC21)OC(C)=O (stereo not drawn) [Prodrug XLIII]",
    "EP2 Relative to Tre, x": 461
  },
  {
    "COMPOUND": "CCCCC[C@H](O)CC[C@@H]1[C@H]2Cc3cccc(OCC(=O)OCC)c3C[C@H]2C[C@H]1O [Treprostinil ethyl ester, reference compound]",
    "EP2 Relative to Tre, x": 11
  }
]
